Target: human TLR2 (Homo sapiens)
Sequence (O60603 21-784): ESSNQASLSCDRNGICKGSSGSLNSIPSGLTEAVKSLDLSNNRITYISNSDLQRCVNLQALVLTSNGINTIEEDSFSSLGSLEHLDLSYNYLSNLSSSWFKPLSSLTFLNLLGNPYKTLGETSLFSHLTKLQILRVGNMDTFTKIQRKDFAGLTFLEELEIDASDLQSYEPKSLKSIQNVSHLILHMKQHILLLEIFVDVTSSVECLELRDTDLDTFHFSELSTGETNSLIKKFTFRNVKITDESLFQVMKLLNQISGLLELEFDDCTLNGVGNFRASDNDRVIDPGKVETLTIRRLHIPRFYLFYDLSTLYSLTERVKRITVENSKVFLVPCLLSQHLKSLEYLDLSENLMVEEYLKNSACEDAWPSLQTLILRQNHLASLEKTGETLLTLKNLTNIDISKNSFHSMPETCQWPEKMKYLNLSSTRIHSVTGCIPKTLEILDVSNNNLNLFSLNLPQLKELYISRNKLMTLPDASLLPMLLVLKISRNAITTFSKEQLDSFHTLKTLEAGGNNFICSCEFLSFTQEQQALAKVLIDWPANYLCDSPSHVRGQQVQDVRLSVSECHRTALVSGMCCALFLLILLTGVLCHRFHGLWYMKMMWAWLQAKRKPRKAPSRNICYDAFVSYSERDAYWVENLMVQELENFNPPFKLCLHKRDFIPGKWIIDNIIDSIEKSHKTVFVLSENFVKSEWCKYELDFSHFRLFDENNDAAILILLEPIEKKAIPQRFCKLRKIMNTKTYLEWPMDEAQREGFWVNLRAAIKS
Test: Reporter gene assay: HEK 293 cells stably transfected with human TLR2 and NF-kB-driven luciferase reporter
Settings: HEK293, 7 h, read-out: Hek-TLR2 (% Eff)
Label condition not met if Emax falls below 80%; label condition met in every other case.

{"columns": ["compound", "assigned.label"],
 "data": [
  ["CCCCCCCCCCCC(=O)OC[C@H](CSC[C@H](N)C(=O)NC(C)CCCN(CC)CC)OC(=O)CCCCCCCCCCC (stereo partly shown)", "condition met"],
  ["CCCCCCCCCCCCOC[C@H](CSC[C@H](N)C(=O)N[C@@H](C)COCCOCCOCCP(=O)(O)O)OCCCCCCCCCCCC", "condition not met"],
  ["CCCCCCCCCCCC(=O)OC[C@H](CSC[C@H](N)C(=O)NCCCCCN)OC(=O)CCCCCCCCCCC", "condition met"],
  ["CCCCCCCCCCCCOC[C@H](CSC[C@H](N)C(=O)N[C@@H](C)C(=O)NCCOCCOCCP(=O)(O)O)OCCCCCCCCCCCC", "condition not met"],
  ["CCCCCCCCCCCC(=O)OC[C@H](CSC[C@H](N)C(=O)NCCOCCOCCOCCOCCP(=O)(O)O)OC(=O)CCCCCCCCCCC", "condition met"],
  ["CCCCCCCCCCCC(=O)OC[C@H](CSC[C@H](N)C(=O)NCCOCCOCCOCCC(=O)O)OC(=O)CCCCCCCCCCC", "condition met"],
  ["CCCCCCCCCCCC(=O)OC[C@H](CSC[C@H](N)C(=O)NCCOCCOCCN)OC(=O)CCCCCCCCCCC", "condition met"]
]}

Origin of measurements: patent US9365506B2
